Record: compiled pKi on the protein given by its sequence from multiple reports.
Sequence of the target: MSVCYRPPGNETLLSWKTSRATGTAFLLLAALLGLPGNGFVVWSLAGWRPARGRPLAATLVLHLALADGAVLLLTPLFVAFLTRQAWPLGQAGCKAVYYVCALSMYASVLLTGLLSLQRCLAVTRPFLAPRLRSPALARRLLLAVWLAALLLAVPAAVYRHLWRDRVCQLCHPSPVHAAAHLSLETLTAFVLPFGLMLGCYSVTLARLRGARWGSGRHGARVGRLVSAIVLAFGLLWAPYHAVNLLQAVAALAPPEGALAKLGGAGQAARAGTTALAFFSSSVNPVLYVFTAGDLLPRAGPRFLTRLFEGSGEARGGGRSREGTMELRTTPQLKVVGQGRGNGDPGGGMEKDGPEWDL
pKi: −log10 of the molar value.
Readout name: pKi

Solved cases below.
Molecule: CCCCC/C=C\C[C@H](O)/C=C/c1cccc(C[C@H](O)CCCCO)n1
pKi: 5.26

Molecule: COc1cc(C(=O)NS(=O)(=O)c2ccccc2C)ccc1Cc1cn(C)c2ccc(NC(=O)OC3CCCC3)cc12
pKi: 5.13

[A] CCCCCC=CCC=CC=CC=CC(SCC(NC(=O)CCC(N)C(=O)O)C(=O)O)C(O)CCCC(=O)O (stereo unspecified)
[B] COc1ccc(/C=C/CCCCOc2cccc(OCCCCC(=O)O)c2CCC(=O)O)cc1
[C] O=C(O)CCCC(O)C=CC=CC=CC(O)CC=CCCCCCO (stereo unspecified)
Your job: order these 3 records by pKi, ascending. Output spec: labels arranged per the requested ranking. A, B, C
(A: 5.22, B: 5.92, C: 8.12)
